# TARGET: Protein phosphatase 3 catalytic subunit alpha (Homo sapiens, UniProt Q08209); further: in other assays of this panel Not Active means under 50% inhibition at 10 µM
# Design: species or system Escherichia coli

COMPOUND: Cc1cc(C2CCCCC2)n(O)c(=O)c1 [CICLOPIROX]
TARGET: Protein phosphatase 3 catalytic subunit alpha (Homo sapiens, UniProt Q08209); further: in other assays of this panel Not Active means under 50% inhibition at 10 µM
IC50: Not Active
--
COMPOUND: Cc1c(C)c2c(c(C)c1O)CC[C@@](C)(CCC[C@H](C)CCC[C@H](C)CCCC(C)C)O2 [ALPHA-TOCOPHEROL]
TARGET: Protein phosphatase 3 catalytic subunit alpha (Homo sapiens, UniProt Q08209); further: in other assays of this panel Not Active means under 50% inhibition at 10 µM
IC50: Not Active
--
COMPOUND: O=C1CC[C@@H](N2C(=O)c3ccccc3C2=O)C(=O)N1
TARGET: Protein phosphatase 3 catalytic subunit alpha (Homo sapiens, UniProt Q08209); further: in other assays of this panel Not Active means under 50% inhibition at 10 µM
IC50: Not Active
--
COMPOUND: CC(C)[C@@]1(NC(=O)[C@@H]2C[C@@H]3c4cccc5[nH]cc(c45)C[C@H]3N(C)C2)O[C@@]2(O)[C@@H]3CCCN3C(=O)[C@H](Cc3ccccc3)N2C1=O.CS(=O)(=O)O [DIHYDROERGOCRISTINE MESYLATE]
TARGET: Protein phosphatase 3 catalytic subunit alpha (Homo sapiens, UniProt Q08209); further: in other assays of this panel Not Active means under 50% inhibition at 10 µM
IC50: Not Active
--
COMPOUND: NCCCCCC(=O)O [AMINOCAPROIC ACID]
TARGET: Protein phosphatase 3 catalytic subunit alpha (Homo sapiens, UniProt Q08209); further: in other assays of this panel Not Active means under 50% inhibition at 10 µM
IC50: Not Active
--
COMPOUND: Cc1ccc2cc3c(ccc4ccccc43)c3c2c1CC3 [3-METHYLCHOLANTHRENE]
TARGET: Protein phosphatase 3 catalytic subunit alpha (Homo sapiens, UniProt Q08209); further: in other assays of this panel Not Active means under 50% inhibition at 10 µM
IC50: Not Active
--
COMPOUND: CCCCN1CCCC[C@H]1C(=O)Nc1c(C)cccc1C [LEVOBUPIVACAINE]
TARGET: Protein phosphatase 3 catalytic subunit alpha (Homo sapiens, UniProt Q08209); further: in other assays of this panel Not Active means under 50% inhibition at 10 µM;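 further: inhibition of calcineurin (PP2B) enzyme activity, measured with DiFMUP as the substrate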
IC50: Not Active
